Reference for the values: PubChem BioAssay (NCI)

# Test system: SF-295 CNS
# TEST NAME: NCI-60 one-dose screen, 48 h (100 = growth as untreated, 0 = no growth, -100 = all killed)
# ASSAY CONDITIONS: 10 µM unless noted
Compounds without any hit were thinned out: in the full panel of roughly 83,000, 20% have a hit.
Consider the following compounds; for each one, report its growth.
Give a bare numeral; the unit % is implied.

According to the records, this compound N#C/C(=C\c1ccc(-c2cccc(Cl)c2)o1)C(=O)Nc1ncc(Cc2ccc(Cl)cc2)s1 displays growth of 45.3

According to the records, this compound COc1ccc(Nc2ncc(I)c(NCCCNC(=O)C3CCC3)n2)cc1 displays growth of 20.8

According to the records, this compound CCOC(=O)c1c(NC(=O)c2ccccc2)sc2c3c(ccc12)OCN(C)C3 displays growth of -76.8

According to the records, this compound O=C1/C(=C/c2cccc(Br)c2)COc2ccc(O)cc21 displays growth of 100

According to the records, this compound COC1C(O)CC(OC2CC(OC3CC(O[C@@H]4C(=O)c5c(cc6cc(OC7CC(OC8CC(O)C(O)C(C)O8)C(O)C(C)O7)c(C)c(O)c6c5O)CC4[C@H](OC)C(=O)C(C)=O)OC(C)C3O)OC(C)C2O)OC1C (some centres not stated) displays growth of 0.867

According to the records, this compound CS(=O)(=O)Nc1cc(-c2ccc3ncnc(Nc4ccc5c(cnn5Cc5ccccc5F)c4)c3c2)cnc1Cl displays growth of 60.9

According to the records, this compound O=C1CCC(C(=O)N/N=C/c2cc(F)ccc2F)N1 (configuration not stated) displays growth of 99.5

According to the records, this compound COc1c2c(cc3c1C(=O)N[C@@H]1[C@@H](O)[C@@H](O)[C@H](O)C[C@@H]31)OCCO2 displays growth of 99.6

According to the records, this compound CC(=O)N1N=C(c2ccc(Nc3nc(Nc4ccc(F)cc4)nc(Nc4ccc(F)cc4)n3)cc2)CC1c1ccc(N(C)C)cc1 (configuration not stated) displays growth of 18.2

According to the records, this compound COc1ccc(C2C3=C(COC3=O)N(CCO)c3cc4c(cc32)OCO4)cc1OC (configuration not stated) displays growth of 62.6

According to the records, this compound Cn1cc(-c2csc(-c3cn(C)c4ccccc34)n2)c2cnccc21 displays growth of -73.1

According to the records, this compound Cc1cc(O)cc(-c2nn(C)cc2-c2cc(N3CCOCC3)nc(-c3cccnc3)n2)c1 displays growth of 14.9

According to the records, this compound COC12C=C/C(=C(/C(=O)OCCSc3ccnn3C)C(=O)CCCCCCCCC3(OC)C=C/C(=C(/C(=O)OCCSc4ccnn4C)C(=O)CCCCCCCC1)O3)O2 displays growth of -3.35

According to the records, this compound Cc1cc2oc(/C=C/c3ccccc3)cc(=O)c2c(C)c1Cl displays growth of 96.2

According to the records, this compound O=C1O[C@@H](c2ccccc2Cl)[C@@H]2c3cc4c(cc3CCN12)OCO4 displays growth of 102

According to the records, this compound CNC(=O)NCC1OC(n2cnc3c(NC(=O)Nc4ccccc4)ncnc32)C2OC(=O)CC12 (configuration not stated) displays growth of 103

According to the records, this compound CC1(C)CC[C@]23CC[C@]4(C)[C@H](CC[C@@H]5[C@@]6(C)CCNCC(C)(C)[C@@H]6CC[C@]54C)[C@H]2[C@H]1OC3 displays growth of 108
